Entries and their Percent Effect
# testSystem: AMP-activated protein kinase, AMPK (Homo sapiens) (UniProt P54646+O43741+P54619+Q9UGJ0+Q9Y478+Q13131+Q9UGI9)
# procedureSummary: AMP-dependent Kinase enzyme assay. An in vitro enzyme assay that detects ADP turnover that is directly proportional to AMPK activity. This uses naive AMPK that is activated during the assay with MK-8722
# Type: functional
# Parameters: scale not given: direction of the effect not stated beside the values
# experimentalSetup: 30 µM

# compound, Percent Effect
measured = [
    ("CC(NC(=O)N(C)Cc1ccsc1)c1ccc2c(c1)CCC(=O)N2 (stereo not drawn)", "5%"),
    ("O=C(c1cccnc1)N1CCCC(c2cc(C(F)F)n3ncnc3n2)C1 (stereo not drawn)", "12.9%"),
    ("CN(Cc1nnc(C2CC2)n1C)C1CCN(Cc2ccon2)C1 (stereo not drawn)", "-11.6%"),
    ("O=C(Cn1cnc(-c2ccccc2)cc1=O)Nc1ccncc1", "-3.34%"),
    ("O=C(CSc1ccc2c(c1)OCCO2)NS(=O)(=O)C1CCCCC1", "3.64%"),
    ("CC(=O)N1CCN(c2cc(C3CN(C)CCO3)nc(C)n2)CC1 (stereo not drawn)", "9.39%"),
    ("O=C(NCCNc1ncccn1)N1CCN(Cc2cccnc2)CC1", "-7.65%"),
    ("CCn1nc(CC(C)C)cc1C(=O)N1C[C@H](O)[C@@H](N2CCCCC2)C1", "-4.12%"),
]

* * *

# System: Trypanosoma cruzi
# procedureSummary: Trypanosoma cruzi phosphomannomutase and mannose-1-phosphate guanylyltransferase assay
# Format: functional
# Set-up: scale not given: direction of the effect not stated beside the values
# experimentalSetup: 10 µM

# compound, Percent Effect / %
records = [
    ("CN(Cc1ccco1)[C@@H]1CN(C(=O)c2ccnnc2)[C@@H]2CCCO[C@H]12", 7.74),
    ("Cc1nn(C)c(N(C)C)c1CNCc1cccc(OCCN(C)C)c1", -8.08),
    ("Fc1cccc(N2CCCC3(CN(Cc4ccncc4)CCO3)C2)c1 (stereo not given)", -6.5),
    ("Cc1ccc(CNC(=O)CN2C=Nc3ccccc3S2(=O)=O)s1", 6.07),
    ("CSCC[C@H](N)C(=O)NCc1cc2n(n1)CCCN(C1CCCCC1)C2", 4.37),
    ("CCCS(=O)(=O)N1CCO[C@H]2[C@H](OCc3ccccn3)CC[C@@H]21", -0.977),
    ("COc1cc(N2C[C@@H]3COC[C@]3(COc3ccc(C#N)cn3)C2)ncn1", 4.01),
    ("COCCc1noc(CN2CCN(CC(O)c3ccccc3)CC2)n1 (stereo not given)", -1.54),
    ("O=C(COCc1nc(-c2ccncc2)no1)NC1CCCCC1", 2.46),
    ("CC(C(N)=O)N(C)CCCc1cc(-c2ccccc2)no1 (stereo not given)", -9.75),
    ("COCCOCC(=O)Nc1ccc(Br)cc1F", 3.8),
    ("CC(C)n1cnc2c1C(C(=O)NCCC#N)N(Cc1ccccc1)CC2 (stereo not given)", 4.44),
    ("Cc1nccc([C@@H]2C[C@@H]3CCN(S(C)(=O)=O)C[C@H]3O2)n1", 7.14),
    ("CCN(CC)C(=O)Nc1cc2c(cc1SC)OCCO2", 3.71),
    ("COCCN1CCC2(CC1)CC(COC)N(c1ncccn1)C2 (stereo not given)", 1.48),
]

* * *

Entries and their Percent Effect
# testSystem: AMP-activated protein kinase, AMPK (Homo sapiens) (UniProt P54646+O43741+P54619+Q9UGJ0+Q9Y478+Q13131+Q9UGI9)
# procedureSummary: AMP-dependent Kinase enzyme assay. An in vitro enzyme assay that detects ADP turnover that is directly proportional to AMPK activity. This uses naive AMPK that is activated during the assay with MK-8722
# Assay type: functional
# Set-up: scale not given: direction of the effect not stated beside the values
# experimentalSetup: 30 µM
attributeMeasured: Percent Effect

# compound, attributeMeasured, recordedValue
data = [
    ("Cc1cnn(CC(C)NCc2nc(-c3cccnc3)no2)c1 (centres undefined)", "Percent Effect", "-14%"),
    ("O=S1(=O)CCN(Cc2cccnc2)[C@H]2CCN(c3ncccn3)CC[C@H]21", "Percent Effect", "-0.0275%"),
    ("CC(=O)NC(C)(C)C(=O)Nc1ncc(Cc2ccc(C)c(F)c2)s1", "Percent Effect", "1.18%"),
    ("Cc1cccc(CNC2CCCc3c2cnn3C)c1 (centres undefined)", "Percent Effect", "-6.19%"),
    ("Cc1nc(O)c2nnn(C[C@H]3CCCN3C(=O)CCC3CCCC3)c2n1", "Percent Effect", "9.5%"),
    ("O=C(CCc1nc2cccnc2[nH]1)NCc1ccc2c(c1)OCO2", "Percent Effect", "2.23%"),
    ("Cc1cc(-c2cnc(NCc3cccnc3)nc2C(C)(C)C)on1", "Percent Effect", "24.3%"),
    ("Cc1nc(C)n(CC2CCCN2Cc2cc(C)on2)n1 (centres undefined)", "Percent Effect", "-68.4%"),
    ("CN(Cc1ccncc1)C(=O)Nc1cnn(CC2CCCO2)c1 (centres undefined)", "Percent Effect", "-6.68%"),
    ("CCC(=O)N1CC[C@@H](c2ccc3ccccc3c2)[C@H](O)C1", "Percent Effect", "-2.44%"),
    ("CSCCC1c2nc[nH]c2CCN1Cc1cc(Cl)ccc1O (centres undefined)", "Percent Effect", "-4.48%"),
    ("Cc1noc([C@@H]2CC[C@@H]3[C@@H](CCN3S(=O)(=O)c3cccnc3)O2)n1", "Percent Effect", "9.76%"),
    ("NC(=O)C1(Cc2ccccc2-c2ccccc2)CCCN(CC2CC2)C1 (centres undefined)", "Percent Effect", "8.02%"),
    ("Fc1cnc(N2CCn3cc(CNc4ccccn4)nc3C2)nc1", "Percent Effect", "7.82%"),
    ("Cc1noc(Cl)c1CCC(=O)N1CCC(CC(N)=O)CC1", "Percent Effect", "-6.93%"),
    ("CN(Cc1cnn(C)c1)C(=O)NC1CCS(=O)(=O)C1 (centres undefined)", "Percent Effect", "-12.4%"),
    ("Cc1ccc(C(=O)N2CCC3(CCN(C(=O)c4cccnc4)C3)CC2)o1", "Percent Effect", "6.42%"),
    ("O=C(c1ccc[nH]1)N1CCCC2(CCN(c3ccsc3)C2=O)C1 (centres undefined)", "Percent Effect", "11.3%"),
    ("O=C(CCn1cncn1)NC1(c2cccc(Br)c2)CCC1", "Percent Effect", "1.67%"),
    ("CCc1ccc(C(=O)NC2CCN(c3cnn(C)c3)C2=O)o1 (centres undefined)", "Percent Effect", "-5.86%"),
    ("CCCOCC(=O)NC1CCc2nc(C)cn2C1 (centres undefined)", "Percent Effect", "8.68%"),
    ("CCn1cc2c(n1)CN(C(=O)c1ccncc1)CC2COCC1CC1 (centres undefined)", "Percent Effect", "-0.804%"),
    ("CCn1cnnc1C1CCN(C(=O)c2cccc3c2ccn3C)CC1", "Percent Effect", "-2.51%"),
    ("COCCN1CCC(Cc2cncc(-c3ccc(C(=O)O)cc3)n2)C1 (centres undefined)", "Percent Effect", "42.5%"),
    ("Cc1n[nH]c(C2CN(C(=O)CCc3ccsc3)CCO2)n1 (centres undefined)", "Percent Effect", "2.76%"),
    ("O=C(CCNC(=O)c1ccoc1)Nc1c(F)cccc1F", "Percent Effect", "-4.32%"),
    ("O=C(NCc1cnc2n1CCN(CC1CC1)CC2)C1CCC1", "Percent Effect", "-7.3%"),
    ("CCc1nccn1C1CCCN(C(=O)c2ccc(C(=O)NC)nc2)C1 (centres undefined)", "Percent Effect", "1.32%"),
    ("Cn1cc(C(=O)NC[C@@H]2OC[C@H]3CN(Cc4ccco4)CC[C@H]32)cn1", "Percent Effect", "-8.23%"),
]

* * *

Entries and their Percent Effect
# testSystem: AMP-activated protein kinase, AMPK (Homo sapiens) (UniProt P54646+O43741+P54619+Q9UGJ0+Q9Y478+Q13131+Q9UGI9)
# procedureSummary: AMP-dependent Kinase enzyme assay. An in vitro enzyme assay that detects ADP turnover that is directly proportional to AMPK activity. This uses naive AMPK that is activated during the assay with MK-8722
# Type: functional
# Design: scale not given: direction of the effect not stated beside the values
# experimentalSetup: 30 µM
attributeMeasured: Percent Effect (%)

# molecule, recordedValue
records = [
    ("CCNC(=O)[C@@H]1C[C@H](NC(=O)c2ccccc2C#N)CN1CCCSC", -0.485),
    ("Cn1ncc2c(=O)[nH]c(CN3CCCC3Cc3ccccc3)nc21 (stereo not given)", -0.517),
    ("O=C1CC(c2ccccc2F)c2c(n3ccsc3nc2=O)N1 (stereo not given)", 1.41),
    ("Cc1noc2nc(C3CCN(Cc4ccncc4)CC3)cc(C(F)F)c12", 1.21),
    ("Cc1cncc(C2CCCN(C(=O)c3scnc3C)C2)n1 (stereo not given)", 3.8),
]
